Each entry below lists one item and its recorded apparent KD of MS2 coat protein value.
Test system: MS2 coat protein
Test: apparent KD of MS2 coat protein; designed switch direction (-1 OFF switch, 1 ON switch): -1; higher = weaker reporter binding
Conditions: input ligand: FMN 200 uM
readout: apparent KD of MS2 coat protein

{"monomer_sequence": "AAGGGACAUGAGGAUCACCCAUGUGAGGAUAUGCUAUGGAAAAUAAAAAAUAAACAUAGCAGAAGGCAUAAAAA [Mat - Exclusion 1 - Eli mod - D37] (Eterna round: R96, puzzle: Exclusion 1)", "readout_value": "89.2 nM"}
{"monomer_sequence": "GAAUAGGGAGGAUAUCCAAUAUAUGACAUGAGGAUCACCCAUGUUUCCACUCGUACCUCCGGAGAAGGCCCAUAAG [Ex5 #5] (Eterna round: R97, puzzle: Exclusion 5)", "readout_value": "22.4 nM"}
{"monomer_sequence": "GCAGGUCAAGGAUAUACAUGAGGAUCACCCAUGUGAUUAGCAGUCCUCGGACUGCAAUGUAGAAGGUGACCUGC [E3/2-C2] (Eterna round: R97, puzzle: Exclusion 3)", "readout_value": "2140 nM"}
